Data origin: ChEMBL document CHEMBL1149667

# experimental_protocol: Cytoprotective effect on HMEC1 cells assessed as cell viability at 10 uM after 24 hrs by MTT assay
# Format: functional
# condition_description: Homo sapiens, HMEC-1, 24 h, read-out: Activity
List of viability at 10 µM values.
All answers are understood in %, so give the number only.

>  <compound>
COC(=O)/C=C/c1cc(OC)c2c(c1)C(CO)C(c1ccc(O)c(OC)c1)O2 (stereo not given)

>  <unit_string>
%

>  <viability at 10 µM>
40

$$$$
>  <compound>
CC(C)(Sc1cc(C(C)(C)C)c(O)c(C(C)(C)C)c1)Sc1cc(C(C)(C)C)c(O)c(C(C)(C)C)c1 [PROBUCOL]

>  <unit_string>
%

>  <viability at 10 µM>
55

$$$$
>  <compound>
COC(=O)/C=C/c1cc(OC)c2c(c1)C(COC(=O)c1cc(O)c(O)c(O)c1)C(c1ccc(O)c(OC)c1)O2 (stereo not given)

>  <unit_string>
%

>  <viability at 10 µM>
40

$$$$
>  <compound>
COC(=O)/C=C/c1cc(OC)c2c(c1)C(C(=O)OC)C(c1ccc(O)c(OC)c1)O2 (stereo not given)

>  <unit_string>
%

>  <viability at 10 µM>
40

$$$$

Lab note: next compound to report on.
Query :: Would you kindly share the measured viability at 10 µM for COC(=O)/C=C/c1ccc(O/C(=C\c2ccc(O)c(OC)c2)C(=O)OC)c(OC)c1 ?
Result :: 40
